tested on: HLA-A02.01 (Homo sapiens, UniProt P04439, D140Y/D185E/D98H/E176V/E277Q/G131W/G231S/I119V/I121R/I166T/I218V/L300P/L318F/N151K/N90K/P208A/P217A/Q86G/Q94H/R138H/R169H/T345S)
assay details: Class I MHC peptide binding affinity (displacement of radiolabeled reference peptide)
assay conditions: allele A02.01; read-out: Observed Affinity (IC50; (nM))
Where a SMILES comes first, the peptide text is derived from it.
experimental endpoint: IC50 (nM)
# value in nM; strip the unit string

For orientation, consider the following solved cases.
>  <molecule>
CC[C@H](C)[C@H](NC(=O)[C@H](Cc1ccc(O)cc1)NC(=O)[C@H](CC(C)C)NC(=O)[C@@H](N)CC(C)C)C(=O)N[C@H](C(=O)N[C@@H](C)C(=O)N[C@@H](Cc1ccccc1)C(=O)N[C@@H](Cc1ccccc1)C(=O)N[C@@H](CC(C)C)C(=O)N[C@@H](CC(C)C)C(=O)O)[C@@H](C)O (H-LLYITAFFLL-OH; N-terminus and C-terminus assumed)

>  <units text>
nM

>  <IC50>
323

$$$$
>  <molecule>
CC[C@H](C)[C@H](NC(=O)[C@@H]1CCCN1C(=O)[C@H](Cc1ccccc1)NC(=O)[C@H](Cc1ccccc1)NC(=O)[C@H](CCCNC(=N)N)NC(=O)[C@H](C)NC(=O)[C@H](CC(C)C)NC(=O)[C@H](CCC(N)=O)NC(=O)[C@@H](N)[C@@H](C)O)C(=O)O

>  <units text>
nM

>  <IC50>
19

$$$$

# next molecule below
query: Provide one value: measured IC50 of CSCC[C@H](NC(=O)[C@@H](N)C(C)C)C(=O)N[C@@H](C)C(=O)NCC(=O)N[C@@H](CC(C)C)C(=O)NCC(=O)N[C@@H](CO)C(=O)N1CCC[C@H]1C(=O)N[C@@H](Cc1ccc(O)cc1)C(=O)N[C@H](C(=O)O)C(C)C (H-VMAGLGSPYV-OH; N-terminus and C-terminus assumed)
result: 102

----------
tested on: HLA-A02.01 (Homo sapiens, UniProt P04439, D140Y/D185E/D98H/E176V/E277Q/G131W/G231S/I119V/I121R/I166T/I218V/L300P/L318F/N151K/N90K/P208A/P217A/Q86G/Q94H/R138H/R169H/T345S)
assay details: Class I MHC peptide binding affinity (displacement of radiolabeled reference peptide)
assay conditions: allele A02.01; read-out: Observed Affinity (IC50; (nM))
Method: In brief, MHCI complexes were prepared and bound to radiolabeled reference peptides. Peptides were incubated at varying concentrations with these complexes for 2 days, and the amount of remaining radiolabeled peptide bound to […] was measured using size exclusion gel-filtration.
Where a SMILES comes first, the peptide text is derived from it.
experimental endpoint: IC50 (nM)
# value in nM; strip the unit string

>  <compound>
CSCC[C@H](NC(=O)[C@@H](NC(=O)[C@H](Cc1ccc(O)cc1)NC(=O)[C@H](C)NC(=O)[C@H](CCSC)NC(=O)[C@@H](NC(=O)[C@@H](N)Cc1ccc(O)cc1)C(C)C)C(C)C)C(=O)N[C@@H](C)C(=O)NCC(=O)N[C@H](C(=O)O)C(C)C

>  <endpoint result>
57

$$$$
>  <compound>
CC(C)C[C@H](NC(=O)[C@H](Cc1c[nH]cn1)NC(=O)[C@H](Cc1c[nH]c2ccccc12)NC(=O)[C@H](CC(C)C)NC(=O)[C@@H](N)CCCNC(=N)N)C(=O)N[C@@H](CC(C)C)C(=O)N[C@@H](CC(C)C)C(=O)N[C@@H](CCC(N)=O)C(=O)N[C@H](C(=O)O)C(C)C (H-RLWHLLLQV-OH; N-terminus and C-terminus assumed)

>  <endpoint result>
1.3

$$$$

query: Provide one value: measured IC50 of CC[C@H](C)[C@H](NC(=O)[C@H](Cc1ccc(O)cc1)NC(=O)[C@H](CCC(=O)O)NC(=O)CNC(=O)[C@H](CO)NC(=O)[C@@H](N)Cc1ccccc1)C(=O)N1CCC[C@H]1C(=O)N[C@H](C(=O)N[C@H](C(=O)O)C(C)C)[C@@H](C)O (H-FSGEYIPTV-OH; N-terminus and C-terminus assumed)
result: 3

----------
Stability (T1/2 (h)) values for the molecules below.
Test system: HLA-A24.02
assay details: Class I MHC peptide binding stability (pMHC-I dissociation, 125I-labeled light chain)
Parameters: species or system human
assay conditions: allele A24.02
Where a SMILES comes first, the peptide text is derived from it.
The number alone won't do; follow it with the unit.

>  <molecule>
CC[C@H](C)[C@H](NC(=O)[C@H](Cc1ccccc1)NC(=O)[C@H](CCCNC(=N)N)NC(=O)[C@@H]1CCCN1C(=O)[C@H](CC(C)C)NC(=O)[C@@H](N)CO)C(=O)N[C@@H](CC(C)C)C(=O)N[C@@H](CCSC)C(=O)N[C@@H](CCC(=O)O)C(=O)N[C@@H](CC(C)C)C(=O)O

>  <tested on>
HLA-A24.02

>  <Stability (T1/2 (h))>
0.2 h

$$$$

query: Provide one value: measured Stability (T1/2 (h)) of CC[C@H](C)[C@H](NC(=O)[C@H](CO)NC(=O)[C@H](Cc1c[nH]c2ccccc12)NC(=O)[C@H](Cc1c[nH]cn1)NC(=O)[C@H](C)NC(=O)[C@@H]1CCCN1C(=O)[C@H](CCSC)NC(=O)[C@H](CC(C)C)NC(=O)[C@@H](N)CO)C(=O)O
result: 0.4 h

query: Provide one value: measured Stability (T1/2 (h)) of CC(C)C[C@H](NC(=O)[C@H](C)N)C(=O)N[C@@H](CO)C(=O)N[C@@H](C)C(=O)N[C@@H](CO)C(=O)N[C@@H](CC(N)=O)C(=O)N[C@@H](CO)C(=O)N[C@@H](CS)C(=O)N[C@@H](Cc1ccccc1)C(=O)O (H-ALSASNSCF-OH; N-terminus and C-terminus assumed)
result: 0.2 h

query: Provide one value: measured Stability (T1/2 (h)) of CC(C)C[C@H](NC(=O)[C@H](CC(C)C)NC(=O)[C@H](CC(C)C)NC(=O)CNC(=O)[C@H](Cc1ccc(O)cc1)NC(=O)[C@H](CC(C)C)NC(=O)[C@@H]1CCCN1C(=O)[C@@H](NC(=O)[C@@H](N)C(C)C)C(C)C)C(=O)O
result: 0.8 h

query: Provide one value: measured Stability (T1/2 (h)) of CC(C)C[C@H](NC(=O)[C@H](CC(C)C)NC(=O)[C@H](CC(C)C)NC(=O)[C@H](CC(=O)O)NC(=O)[C@H](CS)NC(=O)[C@H](CC(C)C)NC(=O)[C@@H]1CCCN1C(=O)[C@@H](NC(=O)[C@@H](N)C(C)C)C(C)C)C(=O)O (H-VVPLCDLLL-OH; N-terminus and C-terminus assumed)
result: 0.4 h

query: Provide one value: measured Stability (T1/2 (h)) of CSCC[C@H](NC(=O)[C@H](CCC(=O)O)NC(=O)[C@H](CC(C)C)NC(=O)[C@H](CC(C)C)NC(=O)[C@H](CC(C)C)NC(=O)CNC(=O)[C@H](Cc1ccc(O)cc1)NC(=O)[C@H](CC(C)C)NC(=O)[C@@H]1CCCN1)C(=O)N[C@@H](CC(C)C)C(=O)O (H-PLYGLLLEML-OH; N-terminus and C-terminus assumed)
result: 6.3 h

----------
tested on: HLA-A02.01 (Homo sapiens, UniProt P04439, D140Y/D185E/D98H/E176V/E277Q/G131W/G231S/I119V/I121R/I166T/I218V/N151K/N90K/P208A/P217A/Q86G/Q94H/R138H/R169H)
Construct: made in house; host or cells: E. coli
assay details: Class I MHC peptide binding stability (pMHC-I dissociation, 125I-labeled light chain)
assay conditions: allele A02.01
Where a SMILES comes first, the peptide text is derived from it.
Is Stability (T1/2 (h)) at least 10 h? Then true. If not, false.

Example cases with answers are listed next.
>  <molecule>
CC[C@H](C)[C@H](NC(=O)[C@@H](N)CC(C)C)C(=O)N[C@@H](CCSC)C(=O)N[C@@H](CCC(N)=O)C(=O)N[C@@H](CC(C)C)C(=O)N[C@@H](CCSC)C(=O)N1CCC[C@H]1C(=O)N[C@@H](Cc1ccccc1)C(=O)NCC(=O)N[C@@H](CS)C(=O)O

>  <cat>
false

$$$$
>  <molecule>
CC[C@H](C)[C@H](N)C(=O)N[C@H](C(=O)N[C@H](C(=O)N[C@@H](CCC(=O)O)C(=O)N[C@@H](Cc1ccc(O)cc1)C(=O)N[C@@H](CS)C(=O)N[C@@H](Cc1ccccc1)C(=O)N[C@@H](Cc1ccc(O)cc1)C(=O)NCC(=O)O)[C@@H](C)CC)[C@@H](C)CC (H-IIIEYCFYG-OH; N-terminus and C-terminus assumed)

>  <cat>
false

$$$$
>  <molecule>
CSCC[C@H](NC(=O)[C@H](CC(C)C)NC(=O)[C@H](CCC(=O)O)NC(=O)[C@H](CCSC)NC(=O)[C@@H](N)CC(C)C)C(=O)N[C@@H](C)C(=O)NCC(=O)NCC(=O)N[C@@H](CC(=O)O)C(=O)N[C@@H](CC(C)C)C(=O)O (H-LMELMAGGDL-OH; N-terminus and C-terminus assumed)

>  <cat>
false

$$$$

query: Evaluate CC(C)C[C@H](NC(=O)[C@H](Cc1ccccc1)NC(=O)[C@@H](NC(=O)[C@H](Cc1ccc(O)cc1)NC(=O)[C@@H](NC(=O)CN)C(C)C)[C@@H](C)O)C(=O)N1CCC[C@H]1C(=O)N[C@@H](CO)C(=O)N[C@H](C(=O)O)[C@@H](C)O (H-GVYTFLPST-OH; N-terminus and C-terminus assumed) : Stability (T1/2 (h)) at minimum 10 h?
result: false

query: Evaluate CSCC[C@H](NC(=O)[C@H](CC(C)C)NC(=O)[C@@H](N)CCCCN)C(=O)N[C@@H](CC(C)C)C(=O)N[C@@H](CC(C)C)C(=O)N[C@@H](CCCNC(=N)N)C(=O)N[C@@H](CC(C)C)C(=O)N[C@@H](CC(N)=O)C(=O)N[C@@H](CC(C)C)C(=O)O : Stability (T1/2 (h)) at minimum 10 h?
result: true

query: Evaluate CC(C)C[C@H](NC(=O)[C@H](C)N)C(=O)N[C@@H](CO)C(=O)N[C@@H](CCC(=O)O)C(=O)N[C@@H](Cc1c[nH]cn1)C(=O)N[C@@H](CS)C(=O)N1CCC[C@H]1C(=O)N[C@H](C(=O)N[C@H](C(=O)O)[C@@H](C)O)[C@@H](C)O (H-ALSEHCPTT-OH; N-terminus and C-terminus assumed) : Stability (T1/2 (h)) at minimum 10 h?
result: true

query: Evaluate CC[C@H](C)[C@H](NC(=O)[C@H](CC(C)C)NC(=O)[C@H](Cc1c[nH]cn1)NC(=O)[C@@H](NC(=O)[C@H](CO)NC(=O)[C@H](CC(C)C)NC(=O)[C@H](CC(C)C)NC(=O)[C@@H](N)C(C)C)C(C)C)C(=O)N[C@H](C(=O)O)C(C)C (H-VLLSVHLIV-OH; N-terminus and C-terminus assumed) : Stability (T1/2 (h)) at minimum 10 h?
result: true
